ASSAY TEXT: Bulk stability (solid state, 1 week; HPLC, XRPD, IC, color)
Type: physicochemical
MEASUREMENT CONDITIONS: Solid state, 25° C./92.5% RH, open
Experimental: Bulk stability of free form Pattern B was evaluated at 25° C./92.5% RH in an open container, at 40° C./75% RH in an open container and at 60° C. in a tight container over 1 week.
Catalogue of Bulk (HPLC) Purity readings, one per entry.
Give just the numeric value; % need not be written.

Answered examples (3):
- MOLECULE: "CCOc1cc(C(=O)N(C)Cc2cnc(CO)c3cn[nH]c23)ccc1-c1cc(F)cc(F)c1.Cl [HCl salt Pattern A]"
  UNITS: "%"
  MEASURED: 99.1
- MOLECULE: "CCOc1cc(C(=O)N(C)Cc2cnc(CO)c3cn[nH]c23)ccc1-c1cc(F)cc(F)c1.O=P(O)(O)O [Phosphate salt Pattern A]"
  UNITS: "%"
  MEASURED: 98.2
- MOLECULE: "CCOc1cc(C(=O)N(C)Cc2cnc(CO)c3cn[nH]c23)ccc1-c1cc(F)cc(F)c1.[Na] [Sodium salt Pattern A]"
  UNITS: "%"
  MEASURED: 98.7

From here, focus on the item given below.
query: Retrieve Bulk (HPLC) Purity measured for CCOc1cc(C(=O)N(C)Cc2cnc(CO)c3cn[nH]c23)ccc1-c1cc(F)cc(F)c1 [Free form Pattern A] and print it.
result: 97.9

Origin of the recorded values: patent US20250084080A1
